Test system: Salmonella typhimurium
Assay name: Antibacterial activity against Salmonella typhimurium TT15151 harboring LigA null mutant rescued with ATP-dependent DNA ligase after 20 hrs
Type: functional, Salmonella enterica subsp. enterica serovar Typhimurium
Particulars: Salmonella enterica, TT15151, 20 h
Parameter: MIC (µg/mL)
// units = µg/mL; emit number, no label

stdin: Fill blank: measured MIC of the compound C=CCOc1ccc(OCc2ccccc2)cc1C(=O)NO is ____.
stdout: 150

stdin: What does the data say about its MIC? Entry: C=CCOc1ccc(OCc2cc(Cl)ccc2Cl)cc1C(=O)NO
stdout: 800

stdin: Reported MIC, compound C=CCOc1ccccc1C(=O)NO : ____
stdout: 70

stdin: Endpoint output: MIC of C=CCOc1ccc(OCC=C)c(C(=O)NO)c1 . Value?
stdout: 150

stdin: Requested read-out: MIC. Entry: O=C(NO)c1ccccc1OCC(O)Cn1cc(-c2ccccc2)nn1 (centres undefined)
stdout: 50

stdin: Quick check: MIC of C=CCOc1cccc(C(=O)NO)c1OCC=C ?
stdout: 400

stdin: Given C=CCOc1cc(OCc2ccc(Br)cc2)ccc1C(=O)NO , state its recorded MIC.
stdout: 40

stdin: Consider the compound C=CCOc1cc(OCc2cc(Cl)ccc2Cl)ccc1C(=O)NO and give its measured MIC.
stdout: 200

stdin: Field request: MIC | item: C=CCOc1ccc(OCc2ccc(Br)cc2)cc1C(=O)NO
stdout: 20
